- procedure.summary: HepG2 cell viability effects, profiling panel, calcein-AM fluorescence, 48 h, basal (AID 1164); note: test concentration not given here
- experimental.context: higher = more signal
parameter: z-score

[[record]]
compound = "COC(=O)[C@@]1(Cc2ccc(OC)cc2)[C@H]2c3cc(C(=O)N(C)C)n(Cc4c(OC)[nH]cc(C)c4=O)c3C[C@H]2CN1C(=O)c1ccccc1"
assay_value = 1.17

[[record]]
compound = "[N-]=[N+]=NCc1ccccc1C[C@@]1(C(=O)N2CCOCC2)N=C(c2ccc(OCCCO)cc2)O[C@@H]1c1ccccc1CN=[N+]=[N-]"
assay_value = 1.29

[[record]]
compound = "CC(C)N1CC=CC23O[C@@H]4C=CCOC(=O)[C@@H]4[C@H]2C(=O)N(CCO)[C@@H]3C1=O (stereo partly drawn)"
assay_value = -0.166

[[record]]
compound = "COCCOC(=O)N1C(=O)[C@@]2(c3cc(C#CCNC(N)=O)ccc31)[C@H](c1ccc(OCCO)cc1)N1[C@H](c3ccccc3)[C@H](c3ccccc3)OC(=O)[C@H]1[C@@H]2C(=O)N1CCc2cc(OC)c(OC)cc2C1"
assay_value = 0.34

[[record]]
compound = "CCOC(=O)C[C@H]1[C@H](OC(=O)c2ccc(-c3ccccc3)cc2)[C@@H](NC(=O)c2ccc(-c3ccccc3)cc2)c2cc(OCCCO)ccc2N1C(=O)Cc1ccc(OC)cc1"
assay_value = -0.0494

[[record]]
compound = "COCCCNC(=O)[C@@]1(c2ccc([N+](=O)[O-])cc2)CC(=O)N(CC23CC4CC(CC(C4)C2)C3)[C@@H]1c1ccc(CO)cc1"
assay_value = 0.198

[[record]]
compound = "COCCCNC(=O)[C@@]1(C)c2ccccc2C(=O)N(Cc2cc(C(F)(F)F)cc(C(F)(F)F)c2)[C@H]1c1ccc(CO)cc1"
assay_value = 0.771

[[record]]
compound = "C=C(C(=O)CC[C@H](OC(C)=O)c1ccc(OCCO)cc1)C(C)C"
assay_value = -1.22

[[record]]
compound = "COC(=O)[C@@]1(Cc2ccccc2)[C@H]2c3cc(C(=O)N(C)C)n(Cc4c(-c5ccccc5)noc4C)c3C[C@H]2CN1C(=O)c1ccccc1"
assay_value = -1.41

[[record]]
compound = "COc1ccc(CCNC(=O)[C@@]2(c3ccc([N+](=O)[O-])cc3)CC(=O)N(CC34CC5CC(CC(C5)C3)C4)[C@@H]2c2ccc(CO)cc2)cc1"
assay_value = -1.88

[[record]]
compound = "C=CC[C@]1(C(=O)N2CCOCC2)N=C(c2ccc(OCCCO)cc2)O[C@H]1c1ccccc1"
assay_value = -0.539

[[record]]
compound = "CCOC(=O)C1=CCC(c2ccc([N+](=O)[O-])cc2)N(S(=O)(=O)c2ccc(C)cc2)C1 (stereo not drawn)"
assay_value = 0.0862

[[record]]
compound = "CN1C=C(C(=O)OCCS(C)(=O)=O)C(C(=O)OCCS(C)(=O)=O)=CC(CCCO)=CC1C1CC1 (stereo not drawn)"
assay_value = 1.23

[[record]]
compound = "CCOC(=O)C[C@H]1[C@H](OC(=O)c2ccc(C(=O)c3ccccc3)cc2)[C@@H](NC(=O)C2CCCCC2)c2cc(OCCCO)ccc2N1C(=O)c1ccccc1"
assay_value = 0.431

[[record]]
compound = "COCC(=C=CC[C@@H](O)c1ccc(CO)o1)CCO"
assay_value = 0.783

[[record]]
compound = "CCCCC(CC)C(O)C1C=CC2C(=O)N(c3ccccc3)C(=O)C2N1Nc1ccccc1 (stereo not drawn)"
assay_value = -0.315

[[record]]
compound = "COc1ccc([Si](C)(C)[C@H]2[C@H](CC(=O)N(CCO)Cc3ccccc3)O[C@@]3(C(=O)N(Cc4cccc(N5CCC5=O)c4)c4ccccc43)[C@@H]2C)cc1"
assay_value = -1.93

[[record]]
compound = "CO[C@H]1O[C@H](CO)[C@@H](OC(=O)Nc2ccc(Oc3ccccc3)cc2)[C@H](OC(=O)Nc2ccccc2)[C@H]1OC(=O)Nc1ccccc1"
assay_value = -3.37

[[record]]
compound = "CS(=O)(=O)CCOC(=O)C1=CC(c2ccc(CO)cc2)=CC(C2CC2)N(Cc2cc3c(cc2Br)OCO3)C=C1C(=O)OCCS(C)(=O)=O (stereo not drawn)"
assay_value = 1.04

[[record]]
compound = "COCCOC(=O)N1C(=O)[C@@]2(c3cc(C#CCNC(N)=O)ccc31)[C@H](C(=O)N1CCN(c3ncccn3)CC1)[C@H]1C(=O)O[C@H](c3ccccc3)[C@H](c3ccccc3)N1[C@@H]2c1ccccc1OCCO"
assay_value = -0.539

[[record]]
compound = "[N-]=[N+]=NCc1ccccc1[C@H]1OC(c2ccc(OCCCO)cc2)=N[C@@]1(CCS(=O)(=O)c1ccccc1)C(=O)N1CCOCC1"
assay_value = 1.01

[[record]]
compound = "CC(C)N1C(=O)C[C@@](C(=O)NCc2ccccc2)(c2ccc([N+](=O)[O-])cc2)[C@H]1c1ccc(CO)cc1"
assay_value = -0.113

[[record]]
compound = "CC=CC(O)C1C=CC2C(=O)N(c3ccccc3)C(=O)C2N1Nc1ccc(C(C)C)cc1 (stereo not drawn)"
assay_value = 0.645

[[record]]
compound = "COC(=O)c1c(CC[C@@H](CO)NC(=O)N[C@@H](Cc2ccccc2)Cn2cc(C3(O)CCCCC3)nn2)oc(C(C)=O)c1C(=O)OC"
assay_value = -0.889

[[record]]
compound = "O=c1cccc(C=Cc2ccccc2)o1"
assay_value = 0.645

[[record]]
compound = "CO[C@H]1O[C@H](CO)[C@@H](OC(=O)Nc2ccc3c(c2)OCO3)[C@H](OC(=O)Nc2ccccc2)[C@H]1OC(=O)Nc1ccccc1"
assay_value = -2.7

[[record]]
compound = "CCCNC(=O)[C@@]1(c2ccc([N+](=O)[O-])cc2)CC(=O)N(CC23CC4CC(CC(C4)C2)C3)[C@@H]1c1ccc(CO)cc1"
assay_value = -1.67

[[record]]
compound = "COc1ccc(CCNC(=O)[C@@]2(Sc3ccc(C)cc3)CC(=O)N(Cc3ccccc3Cl)[C@@H]2c2ccc(CO)cc2I)cc1"
assay_value = 0.334

